Reference source for all entries: PubChem BioAssay (EPA / NIEHS)

- test protocol: ATG_CMV_CIS: Attagene CIS-FACTORIAL HepG2 Assay for human CMV (Internal Marker) (AID 2282928);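 also: endpoint acts as a background internal control marker rather than a target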
- protocol conditions: HepG2 CMV promoter reporter, transcription factor profiling; actives raise or lower the signal
Activity calls are given as the source filed them. The calls were made as follows: active = hit-call score of the fitted dose curve at least 0.9, where 1 is the maximum; inactive = score below 0.9.
Outcomes: TRUE for active, FALSE for inactive

CCCCCCO :: FALSE
CCOC(=O)C1=NOC(c2ccccc2)(c2ccccc2)C1 :: FALSE
C=Cc1ccc(OC(C)=O)cc1 :: TRUE
O=C(Oc1ccccc1)c1ccccc1C(=O)Oc1ccccc1 :: FALSE
Cn1ccnc1 :: FALSE
Cc1noc(NS(=O)(=O)c2ccc(N)cc2)c1C :: FALSE
C=CC(C)(O)CC/C=C(\C)CC (stereo not drawn) :: FALSE
CC1=NN(c2ccc(S(=O)(=O)O)cc2)C(=O)C1N=Nc1ccccc1 (stereo not drawn) :: FALSE
Oc1ccc(-c2ccccc2)c(Cl)c1 :: TRUE
CCCCNC(=S)NCCCC :: FALSE
Oc1c(Cl)cc(Cl)c(Cl)c1Cl :: FALSE
CC(C)C(=O)OCCc1ccccc1 :: FALSE
O=C(O)CCC(=O)O :: FALSE
COc1ccc(C(=O)/C(Br)=C\C(=O)O)cc1 :: TRUE
O=C1CCCCC1C1CCCCC1 (stereo not drawn) :: FALSE
C[Si](C)(C)N[Si](C)(C)C :: FALSE
CC1CCC(C(C)(C)S)C(=O)C1 (stereo not drawn) :: FALSE
Cc1ccc(S(=O)(=O)N=C=O)cc1 :: FALSE
Nc1ccc(C(=O)O)cc1 :: FALSE
COc1nccnc1CC(C)C :: FALSE
CCCc1ccc(O)c(OC)c1 :: FALSE
CCCCCC1=CCCC1=O :: FALSE
N=C1C=CC(=C(c2ccc(N)cc2)c2ccc(N)cc2)C=C1 :: TRUE
CC(=O)CCC=C(C)C :: FALSE
C=C(C)C(=O)OCC(O)COc1ccc(C(C)(C)c2ccc(OCC(O)COC(=O)C(=C)C)cc2)cc1 (stereo not drawn) :: FALSE
C=CC(=O)NCOCCCC :: FALSE
O=c1c(O)c(-c2ccc(O)cc2O)oc2cc(O)cc(O)c12 :: FALSE
CCCSSCCC :: FALSE
O=C(C=Cc1ccccc1)OCCc1ccccc1 :: FALSE
OCCCc1ccccc1 :: FALSE
C/C=C/C=C/CCCCCCCO :: FALSE
CC(CC=O)CC(C)(C)C (stereo not drawn) :: FALSE
CCOB(OCC)OCC :: FALSE
CCOC(=O)CC(=O)c1ccccc1 :: FALSE
CCC(C)c1ccccc1 (stereo not drawn) :: FALSE
CN(C)Cc1cc(CN(C)C)c(O)c(CN(C)C)c1 :: FALSE
CCC1COC(=O)O1 (stereo not drawn) :: FALSE
CC1=CCC2CC1C2(C)C (stereo not drawn) :: FALSE
Cc1ccc(C)c(OCCCC(C)(C)C(=O)O)c1 :: FALSE
O=C(O)CCCC(=O)O :: FALSE
CCCCCCCCCCCC(=O)N(C)CC(=O)O :: TRUE
CCOC(=O)c1ccc(C)cc1 :: FALSE
CCCCC1CCC(=O)O1 (stereo not drawn) :: FALSE

* * *

- Read-out: Matrix Metallopeptidase 1 (MMP1), MMP1 (gene 4312)
- test protocol: BSK_BE3C_MMP1: BioMAP Diversity Plus: BE3C Assay for Matrix Metallopeptidase 1 (MMP1) Biomarker Activity (AID 2283024)
- protocol conditions: primary human bronchial epithelial cells; actives raise or lower the signal
Active and inactive are the calls of the source. Rule for the calls: active = hit-call score of the fitted dose curve at least 0.9, where 1 is the maximum; inactive = score below 0.9.
Classes used: YES for active, NO for inactive

Nc1cccc(N)n1 :: NO
C=CC(=O)OCCCCCCCC(C)C :: NO
COC(OC)(C(=O)c1ccccc1)c1ccccc1 :: NO
C=CC(=O)OCC(C)OCC(C)OCC(C)OC(=O)C=C (stereo not drawn) :: NO
CC1(C)CC(O)CC(C)(C)N1[O] :: NO
c1ccc2sc(SSN3CCOCC3)nc2c1 :: NO
CC/C=C\CCOC(=O)c1ccccc1O :: NO
CCCCCCOC(=O)CCCCC(=O)OCCCCCC :: NO
CC(C)C(=O)OCCc1ccccc1 :: NO
CCCCCCC=O :: NO
C=CC(=O)OCCCCCCOC(=O)C=C :: NO
CCOC(=O)C1=NN(c2ccc(Cl)cc2Cl)C(C)(C(=O)OCC)C1 (stereo not drawn) :: NO
CC/C=C\C/C=C\C/C=C\CCCCCCCC(=O)OC :: YES
CCCCCCCCC(CO)CCCCCC (stereo not drawn) :: NO
CCCCCC1=CCCC1=O :: YES
O=C(Oc1ccccc1)c1ccccc1C(=O)Oc1ccccc1 :: NO
O=C1CCCCCCCCCCCN1 :: NO
CC=C(C)C(C)=O :: YES
C=CC(=O)NCOCCCC :: NO
Fc1ccc(Br)cc1 :: NO
C=CCCCCCCCCC=O :: NO
CCOC(=O)C1=NOC(c2ccccc2)(c2ccccc2)C1 :: NO
CC(C)CCCCCOC(=O)CS :: NO
Oc1ccc(/C=C/c2cc(O)cc(O)c2)cc1 :: NO
C=CC(=O)NC(C)(C)C :: NO
Oc1ccccc1Cc1ccccc1O :: NO
CCN1CN(CC)CN(CC)C1 :: YES
Oc1c(Cl)cc(Cl)c(Cl)c1Cl :: YES

* * *

- study system: Paired box protein Pax-6 (Homo sapiens) (UniProt P26367)
- Sequence (P26367 whole entry, looked up): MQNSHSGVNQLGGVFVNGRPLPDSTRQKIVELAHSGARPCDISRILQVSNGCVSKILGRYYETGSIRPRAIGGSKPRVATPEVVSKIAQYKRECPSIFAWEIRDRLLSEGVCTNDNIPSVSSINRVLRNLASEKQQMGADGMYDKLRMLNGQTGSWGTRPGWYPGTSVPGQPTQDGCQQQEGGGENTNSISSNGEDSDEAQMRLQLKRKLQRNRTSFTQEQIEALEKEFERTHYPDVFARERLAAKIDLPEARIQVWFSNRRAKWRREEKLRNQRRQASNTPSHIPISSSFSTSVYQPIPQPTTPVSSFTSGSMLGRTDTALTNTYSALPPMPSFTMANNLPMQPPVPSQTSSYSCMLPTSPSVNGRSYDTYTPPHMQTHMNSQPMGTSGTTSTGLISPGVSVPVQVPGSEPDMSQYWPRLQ
- test protocol: ATG_Pax6_CIS: Attagene CIS-FACTORIAL HepG2 Assay for human Paired Box 6 (PAX6) (AID 2282956)
- protocol conditions: HepG2 CIS-FACTORIAL PAX6 reporter transcription, RNA readout; actives raise or lower the signal
Active and inactive are the calls of the source. How the source made its calls: active means hit-call score of the fitted dose curve at least 0.9, where 1 is the maximum; inactive means score below 0.9.
Outcomes: class 1 (active), class 0 (inactive)

C=C(C)C(=O)OCCCCCCCCCCCC :: class 0
CCCCCCC=O :: class 0
CC(C)=CCCC(C)=CC#N :: class 0
Oc1ccc(-c2ccccc2)c(Cl)c1 :: class 0
C=Cc1ccc(OC(C)=O)cc1 :: class 0
Cc1ccc([N+](=O)[O-])cc1N :: class 0
CCOc1ccc(NC(N)=O)cc1 :: class 0
C=CCOC(=O)c1ccc(C(=O)OCC=C)c(C(=O)OCC=C)c1 :: class 0
CCCCCCCCCCCCc1ccc(O)cc1 :: class 0
C=CC(=O)O[C@H]1C[C@@H]2CC[C@@]1(C)C2(C)C :: class 0
CC(C)COC(=O)CC(C(=O)OCC(C)C)S(=O)(=O)O (stereo not drawn) :: class 0
NC(=O)Nc1ccccc1 :: class 0
Nc1ccnc(=O)[nH]1 :: class 0
Nc1ncnc2nc[nH]c12 :: class 0
Nc1nc(N)nc(-c2ccccc2)n1 :: class 0
O=C1c2ccccc2C(=O)c2cc(S(=O)(=O)O)ccc21 :: class 0
CC(C)C(=O)OCCOc1ccccc1 :: class 0
CCc1occc(=O)c1O :: class 0
CC=C(C)C(C)=O :: class 0
C=CCCCCCCCCC=O :: class 0
C=C(C)OC(C)=O :: class 0
CC(=O)OCC=C(C)C :: class 0
CCCCC(C=O)CC (stereo not drawn) :: class 0
CC(=O)c1ccc(S(=O)(=O)NC(=O)NC2CCCCC2)cc1 :: class 0
OCCCc1ccccc1 :: class 0
CCc1cccc(C)c1N :: class 0
Cc1c[nH]c(=O)[nH]c1=O :: class 0
Cc1c(C(=O)c2c[nH]n(C)c2=O)ccc(S(C)(=O)=O)c1C1=NOCC1 :: class 0
Nc1ccc(Cl)c(N)c1 :: class 0
O=S(=O)(O)c1ccc(N=Nc2c(O)ccc3ccccc23)cc1 :: class 0
CCCc1ccc(O)c(OC)c1 :: class 0
CO[Si](CCCS)(OC)OC :: class 0
CC1=CC=C(C(C)C)CC1 :: class 0
CC(C)c1ccc2ncccc2c1 :: class 0
CCCCCCCCCC(C)=O :: class 0
C=C(C)[C@@H]1CC=C(C)CC1 :: class 0
CCCCOCCOC(=O)COc1ccc(Cl)cc1Cl :: class 0
O=C(Cl)c1ccc(C(=O)Cl)cc1 :: class 0
CC(C)CCCCCOC(=O)CS :: class 0
CCCCCC(=O)OCC :: class 0
CCOC(=O)CC(=O)c1ccccc1 :: class 0
Nc1ccc(C(=O)OCCCOC(=O)c2ccc(N)cc2)cc1 :: class 0
COC(=O)c1ccccc1C :: class 0
COc1ccc(-c2coc3cc(O)cc(O)c3c2=O)cc1 :: class 0
O=c1c(O)c(-c2ccc(O)cc2O)oc2cc(O)cc(O)c12 :: class 0
CCN(CC)c1cccc(C)c1 :: class 0
C=C1C[C@H]2[C@@H]3C=C(C)C4=CC(=O)CC[C@]4(C)[C@H]3CC[C@]2(C)[C@@]1(OC(C)=O)C(C)=O :: class 1
C=CCCCCCCCCOC(C)=O :: class 0
CCC1COC(=O)O1 (stereo not drawn) :: class 0
Cc1c(O)cccc1O :: class 0
CCOC(=O)[C@H](O)[C@@H](O)C(=O)OCC :: class 0
CCC(C)C(=O)OCCc1ccccc1 (stereo not drawn) :: class 0
CCCCCCCO :: class 0
COC(Cc1ccccc1)OC :: class 0
CC(=O)CC(=O)Nc1ccccc1C :: class 0
CC(=O)OC/C=C(/C)CCC=C(C)C :: class 0
CC=C(C)C=CC=C(C)C :: class 0
O=C(Cl)c1c(Cl)c(Cl)c(C(=O)Cl)c(Cl)c1Cl :: class 0
Cc1cccc(C(C)(C)C)c1O :: class 0
CC(C)C(=O)OCCc1ccccc1 :: class 0
Nc1ccc(O)c([N+](=O)[O-])c1 :: class 0
O=C(O)c1ccc2c(c1)C(=O)OC2=O :: class 0
CCN1CN(CC)CN(CC)C1 :: class 0
